Data provenance: paper PMC7356956

SI (selectivity index) values for the compounds below.
Tested on: MRC-5 fibroblasts
METHOD DESCRIPTION: In vitro cytotoxicity assay on MRC-5 fibroblasts
Format: cell-based
EXPERIMENTAL CONTEXT: IC50 (MRC-5)/MIC (H37Rv)
Experimental: The cytotoxicity of compounds on MRC-5 fibroblasts was performed exactly as previously reported.
Give the value as a plain number.

>>> recorded_number("Cc1cn(C2CCN(CCc3cccc(Oc4ccc(Cl)c(Cl)c4)c3)CC2)c(=O)[nH]c1=O [Compound 21g]")
0.30

Moving on to the next compound.
[in] Field request: SI (selectivity index) | item: Cc1ccc(Oc2cccc(CCN3CCC(n4cc(C)c(=O)[nH]c4=O)CC3)c2)cc1 [Compound 21f]
[out] 0.44
